# Experiment Description: amyloid nucleation score (Sup35N fusion, yeast selection) (log enrichment); library NNK1; higher = more nucleation; inactive = no reads after selection;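 also: zero at mode of non-aggregating sequences after 7 days selection at 30°C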
Quantity: amyloid nucleation score
One number for each entry.

Reference set (5 entries):
NPHCVSLKTRIPFVGGSKCG; -0.748
LCFSGD; -0.352
RLLASGFLSTRFR; 0.143
LFSYMYLEVDMSESMIRYL; 1.02
AVMMHDTVGVHW; -0.609

Please state amyloid nucleation score for every substance in the list that follows.
1. TSCSVSLVWLFLGVRLCVLC
2. TSTVVFFKFYLTKFWISVPT
3. PTFFHNCVDTFRSS
4. YLLSCVGIASLGFKVFL

1: -0.009; 2: 1.28; 3: -0.026; 4: -0.718

---

# Experiment Description: amyloid nucleation score (Sup35N fusion, yeast selection) (log enrichment); library NNK1; higher = more nucleation; inactive = no reads after selection
Quantity: amyloid nucleation score

VQFLIKPDLMTG; inactive
SFYLIPPSCGYISHFGISTG; inactive
HRRNMAKC; inactive

---

# Experiment Description: amyloid nucleation score (Sup35N fusion, yeast selection) (log enrichment); library NNK1; higher = more nucleation; inactive = no reads after selection
Quantity: amyloid nucleation score

RGGTMGYILDNKCQNFVGTW; inactive
RTGPLSVASGAVPYGYQPWL; -0.203
NTHSPSFGFAMIRSGDTEKF; inactive
THAVREFWDLGGVNEENYGW; inactive

---

# Experiment Description: amyloid nucleation score (Sup35N fusion, yeast selection) (log enrichment); library NNK3; higher = more nucleation; inactive = no reads after selection
Quantity: amyloid nucleation score

Reference set (5 entries):
PSFMLVVIKVTYVMADSNMR; inactive
FSPFNAENSETVTCTGCSHC; inactive
SNARKGLMNVLRRYWLCDWT; -0.412
IGWYYSYITRKSENWVLVAL; inactive
CVSYAISNGLRMEFSKENQY; 0.415

Please state amyloid nucleation score for every sequence in the list that follows.
1. SHLPCLFCYV
2. SVSLCFYFGIDYRILLMPEN
3. SNPLYGSDMQVHYF
4. LCWKFAPRMLVYMMGY
5. TLSSKDVYMFLDS
6. SSQDVTALLSRLN
7. IIQDYGTVVD

inactive
0.088
1.16
inactive
inactive
inactive
inactive

---

# Experiment Description: amyloid nucleation score (Sup35N fusion, yeast selection) (log enrichment); library NNK3; higher = more nucleation; inactive = no reads after selection
Quantity: amyloid nucleation score

Reference set (10 entries):
MRTLYFPKCMTRLKMHVSSI; inactive
SGGVFCYQGSPGVVY; inactive
SLDCCNGVDRFKVSNILHYP; inactive
VGRYPSLVSLNDTCNDVTRI; inactive
LPLMDKLR; inactive
SFAKHHDMK; inactive
RRLCRYCDVILRNFMHKIQW; inactive
IPRVDLLLCLDSIGLGRSLN; inactive
ASAFYRCVGGIVYVHTIVGV; inactive
RLICLMGSLW; 1.34

Please state amyloid nucleation score for every substance in the list that follows.
1. THISQNLQSVVHLYVLRKVV
2. PGIQYPSCRKLVIIYMSCL
3. NLDRLYI
4. NCTVYLGTFCCSQGFAGLPP

1: inactive; 2: inactive; 3: inactive; 4: 3.07

---

# Experiment Description: amyloid nucleation score (Sup35N fusion, yeast selection) (log enrichment); library NNK3; higher = more nucleation; inactive = no reads after selection
Quantity: amyloid nucleation score

Reference set (4 entries):
FTLASRLLWGRMCNV; inactive
FCIEPR; inactive
AAMHLDILNGTATRLSYSCA; inactive
LVVLLRFCGRAPGIGQSMGD; inactive

Please state amyloid nucleation score for every substance in the list that follows.
1. VALLDSHGKWFMLGQFLNLK
2. ILLIWCIFTSAKFQQTSFMT
3. RWNSISI

1: inactive; 2: inactive; 3: inactive

Please state amyloid nucleation score for every substance in the list that follows.
1. MNLYVSSLIGISARMWDWFS
2. LRGVGDRIGNTSGISGLWPG
3. LPNRYVMINGCIRQFAKCDI
4. SLLCKFIVRNPNSSLIRSAS
5. CGSRLYRCETAMMVLRIRSG
6. LASKLDCVLPHYNVGRCNDP
7. RYGFDRIPIFLLNVAMNVYP
8. VISFDVWSNRMCFLMGMIWH

1: 0.289; 2: 0.759; 3: 1.58; 4: inactive; 5: inactive; 6: 0.297; 7: 0.535; 8: inactive

Please state amyloid nucleation score for every substance in the list that follows.
1. VESLSVSAAL
2. ACSRRERY
3. CSFTARFLHTMSPKKFKLGN
4. LTQMCFTTSVFLRLAWVPFK
5. FLYRDSSCRLSLM
6. MRRCDVWKIYGYMLSPPLPR

1: inactive; 2: inactive; 3: inactive; 4: inactive; 5: inactive; 6: inactive

---

# Experiment Description: amyloid nucleation score (Sup35N fusion, yeast selection) (log enrichment); library NNK1; higher = more nucleation; inactive = no reads after selection
Please respond with reported amyloid nucleation score for every item in the list.
One number for each entry.

ADCFCNRFNVICVKHYGSAR; 0.159
MREDIAFDFW; 4.22
IYRLDTI; -0.864
NWHPISVGSFYIVGLMRHRR; 4.03
ITLNWKIAEFSRCTVQLQNL; 6.32

Please state amyloid nucleation score for every substance in the list that follows.
1. PCAETLVRHIHAYLKWI
2. LAYVHTVKVDGPWKHMNVWY
3. GFSVLCRSRPQGSTGVQIRV
4. KLVDAGFVD
5. SWALRWYPELIET

1: 0.065; 2: 1.22; 3: -0.788; 4: 0.759; 5: 0.076

Please state amyloid nucleation score for every substance in the list that follows.
1. VPENLKRMRVRAVSLGMSGE
2. EVSLLSFLE

1: 1.44; 2: 0.68

---

# Experiment Description: amyloid nucleation score (Sup35N fusion, yeast selection) (log enrichment); library NNK3; higher = more nucleation; inactive = no reads after selection
Quantity: amyloid nucleation score

Reference set (5 entries):
LSSFHHRQVLHRAVAKPFTA; 0.245
PSENKRGFPDLVFAMINSGI; inactive
RMDNCSGDI; inactive
YVFKYVEEVSHFSLFLWTKS; inactive
GGSLYACRGTLRLSNTNVKA; inactive

Please state amyloid nucleation score for every substance in the list that follows.
1. QGSHRGMKITGISWTVLGYW
2. SIGELPT
3. FVYWLILYLRRVAERR

1. inactive
2. inactive
3. inactive

Please state amyloid nucleation score for every substance in the list that follows.
1. LDNKFSALGCFANARFK
2. YLFTFVWQTTSLINVIVALI
3. RKFDPSISGSCWNVGISCVV
4. ANCVALTIVSYQVARDMKSK
5. GSHELHWSVGYQESVLLRYH
6. RMILTSQLLQKENGLSVTIN

1: inactive; 2: inactive; 3: inactive; 4: 1.36; 5: inactive; 6: 0.853

Please state amyloid nucleation score for every substance in the list that follows.
1. SEQFSPCLVGQLRMDYSWI
2. GFSYMLVFSNGVYMLIRIRW
3. FTGKRSALGCIGVCILF
4. RSMTWFSQDYVSVHRVL

1. inactive
2. inactive
3. -0.598
4. inactive

Please state amyloid nucleation score for every substance in the list that follows.
1. AYRVVQTGDLHGRCAWIVNV
2. LNWSKEAWCSYNILLNYGGW
3. FVCCYVYAQQLRRRYIFNLS

1: 0.088; 2: inactive; 3: inactive

---

# Experiment Description: amyloid nucleation score (Sup35N fusion, yeast selection) (log enrichment); library NNK3; higher = more nucleation; inactive = no reads after selection
Quantity: amyloid nucleation score

MVGRGEQVM; inactive
LLKVVD; inactive
HHGWVVYNWVDKVINSHIVG; 0.478
NVAAISGILYSLLTFFLSGG; inactive
VWTLAAVYYIIVRYSHKIRK; inactive
RYRLSMELT; inactive

Please state amyloid nucleation score for every substance in the list that follows.
1. DYVIVCAMEKLNRTVLWAQG
2. SGMLKLSWVVW
3. NRIVQAFPSIGGFATNVCLC
4. WSWGTG

1: inactive; 2: 0.667; 3: inactive; 4: inactive

---

# Experiment Description: amyloid nucleation score (Sup35N fusion, yeast selection) (log enrichment); library NNK3; higher = more nucleation; inactive = no reads after selection
Please respond with reported amyloid nucleation score for every item in the list.
One number for each entry.

Reference set (2 entries):
RREGGTPIAHPLLGPGP; -0.076
AVCPSISTLSCGQ; -0.055

Here is another sequence to look at.
Would you mind telling me what amyloid nucleation score value was observed for YHLDIKNFHTLCWGPYFTSM ? 0.789

---

# Experiment Description: amyloid nucleation score (Sup35N fusion, yeast selection) (log enrichment); library NNK2; higher = more nucleation; inactive = no reads after selection
Quantity: amyloid nucleation score
Numbers only.

Reference set (5 entries):
FMYHSYSGRPNNHAIGKHFR; -0.405
SLDGISHHSTDVNLVLNCYR; 5.22
NASVHPMFL; -0.24
LQLVMKCRVKCAFLPGGMAW; 5.25
AQNYYMY; 6.88

Please state amyloid nucleation score for every substance in the list that follows.
1. VKPMMTFIATYGRYNHQFLS
2. CRMSLRYTVPYSVQPLRGSL
3. KFKDHVGLYKPMGSRKFLDW
4. VKVQKINGGCVGFDLTWLCN
5. SSIRKDNRGCAHGGLVVER
6. WIVSGKLTTTFSLRR
7. KFLLGSVGTLQSNPTLFHLR

1. 0.861
2. 0.156
3. -0.28
4. 8.86
5. 0.698
6. 5.15
7. 0.095

Please state amyloid nucleation score for every substance in the list that follows.
1. KFWYYIFCGLCMCYDFSKRR
2. NTGFNCCNHFFRADGSLVEC
3. TRFRRDESRTSEDLRPRNRR

1: 6.42; 2: 3.39; 3: 1.26

Please state amyloid nucleation score for every substance in the list that follows.
1. CRLEGKTSVPCDNRGLGWAR
2. GVSGIEVVFYMLSKWGKHER
3. PLRNGDGVSFLGSVLSWPQA

1. 0.938
2. 4.13
3. -0.294

Would you mind telling me what amyloid nucleation score value was observed for CPCSRCLVDNKVRL ? -0.41
